- System: LXFL 529
- procedure-details: NCI tumour cell line growth inhibition, 48 h
Active and inactive are the calls of the source. Cut-off read from the data, not from the text of the source: active = GI50 up to about 1.1 µM and inactive = higher.
readout-kind: GI50

Previously resolved entries follow.
INSERT INTO measurements (compound, endpoint_result) VALUES
  ('CCOc1ccccc1N1C(=O)C(=O)C(c2nc3ccccc3s2)C(=O)C1=O', '35.5 µM (inactive)'),
  ('Clc1cccc(C2SCc3nc4ccccc4n32)c1 (stereo not given)', '19.9 µM (inactive)'),
  ('CCO/C=C/C(C)C1(C(=O)OCC)CCCCC1=O (stereo not given)', '> 100 µM (inactive)');

Give recorded GI50 with LXFL 529 for the following compound: CSc1cc(-c2cc3ccccc3o2)oc(=O)c1C#N
> 100 µM (inactive)

// same read-out, input: N#CCC(=O)N/N=C1/C(=O)NC(=O)C(=O)C1c1nc2ccccc2s1 (stereo not given)
> 100 µM (inactive)

// same read-out, input: CC(=O)O[C@H]1CC[C@@]2(C)C(=CC[C@@H]3C2CC[C@]2(C)Nc4[nH]ncc4CC32)C1 (stereo not given in full)
19.9 µM (inactive)

What do you get for Nc1nc2c(ncn2Cc2ccccc2CCO)c(=O)[nH]1 ?
> 100 µM (inactive)

// query: CCCOc1ccc(/C(Cl)=C(\C=O)c2ccc(OC)c(OC)c2)cc1OCCC
5.74 µM (inactive)

Similarly, Cc1cc(N(CCC#N)CCC#N)ccc1/C=C1/CN(N2C(=O)/C(=C/c3ccc(N(CCC#N)CCC#N)cc3C)N=C2c2ccccc2)C(c2ccccc2)=N1 ?
63.5 µM (inactive)

Next compound up: COC(=O)/C=C(C)/C=C/C1OC(C)OCC1O (stereo not given)
> 100 µM (inactive)

* * *

The entries below are paired with their reported GI50.
- Test system: UO-31
- procedure-details: NCI tumour cell line growth inhibition, 48 h
Active and inactive are the calls of the source. No stated cut-off is given here; in the data, active = GI50 up to about 1.1 µM and inactive = higher.

INSERT INTO measurements (compound, readout_kind, endpoint_result) VALUES
  ('CC(C)(C)OC(=O)n1c(Cl)c(C=O)c2ccccc21', 'GI50', '19.1 µM (inactive)'),
  ('CCOC(=O)C1=NN(c2ccc([N+](=O)[O-])cc2)[C@@]2(C)C[C@]3(c4ccccc4)N(c4ccc([N+](=O)[O-])cc4)N=C(C(=O)OCC)N3c3ccccc3N12', 'GI50', '> 100 µM (inactive)'),
  ('Cc1cn(C2CC(O)C(CO)C2C)c(=O)[nH]c1=O (centres undefined)', 'GI50', '> 100 µM (inactive)');

What does the data say about its GI50? Entry: O=C(COc1ccc(Cl)c(Cl)c1)N(Cc1ccccc1)Cc1ccc[n+](Cc2ccc(Cl)cc2S(=O)(=O)F)c1
> 100 µM (inactive)

// next record COc1ccc(N[S+]([O-])c2ccc(OC)cc2)cc1 (centres undefined)
12.5 µM (inactive)

* * *

- Test system: COLO 205
- procedure-details: NCI tumour cell line growth inhibition, 48 h
Activity calls are given as the source filed them. Cut-off read from the data, not from the text of the source: active = GI50 up to about 1.1 µM and inactive = higher.
Would you mind answering with one of these outcomes? 1.0 (active), 0.0 (inactive)

Per the records of this test, what outcome belongs to CCOC(=O)CNC(=O)C(CSC(=O)N(O)c1ccc(Cl)cc1)NC(=O)CCC(N)C(=O)OCC (stereo unspecified) ?
0.0

Now try COC1(OC)CC2CCCCC2=C(C)N1S(=O)(=O)c1ccccc1 (stereo unspecified) .
0.0

And then COc1ccc(OC)c(NC(=O)C(=O)C(C(C)=O)c2nc3ccc(Cl)cc3nc2O)c1 (stereo unspecified) , what is it?
0.0

Would you kindly repeat that for Cc1ccc2c(=O)cc(-c3ccc(-c4ccccc4)s3)[nH]c2n1 ?
0.0

And what about the molecule CC(C)(C)OC(=O)c1ccc(NCC2=CC(=O)C=CC2=O)cc1 ?
0.0

Follow-up item: CCN1CN(c2ccccc2)C2(CCN(CC(CC3OCCO3)c3ccc(F)cc3)CC2)C1=O (stereo unspecified)
1.0

Please answer likewise for CCOC(=O)CNC1=Nc2ccccc2C(=O)N2CSCC12 (stereo unspecified)
0.0

Okay, and Cc1cc2c(C)n(Cc3ccc(Cl)cc3Cl)nc2c(C#N)c1C ?
0.0

Now consider C=C1C(=O)OC2CC(C)C3(O)CCC(=O)C3(C)CC12 (stereo unspecified) and answer again.
0.0

Continue with Oc1ccc2ccccc2c1/N=N/c1cccc2ccccc12
0.0

Also, Cc1cc(Nc2ccc(NS(C)(=O)=O)cc2)c2c(ccc3[nH]ccc32)n1 please.
0.0

Also need O=C1CCCC1C(O)(C(F)(F)F)C(F)(F)F (stereo unspecified) , thanks.
0.0

For O=c1c2cc(Br)ccc2oc2ccc(Br)cc12 then?
0.0

Field entry: CC(=O)OC[C@@H]1[C@H]2CC[C@]3(C)[C@@H](OC(C)=O)CC[C@H]3[C@@H]2CC[C@H]1C1(C)SCCS1
0.0

Same read-out for CCOC(=O)C1=C(Nc2ccc(Br)cc2)OCC1=O ?
0.0

Queued: Cc1ccc2c(O)c3c(cc2c1)C(=O)c1c2c(cc(O)c1C3=O)C1(C)OC(O2)C(O)C(N(C)C)C1O (stereo unspecified)
1.0

Further, for COC(C)(C)[C@H](O)C(O)CC(C)[C@@H]1CCC23CC12CCC1[C@@]2(C)CCC(OC(C)=O)C(C)(C)C2CC(OC2OC(COC(C)=O)C(O)C(O)C2O)[C@]13C (stereo partly specified) ?
0.0

Ok, now CNC1C(O)C(NC)C2OC3(O)C(=O)CC(C)OC3OC2C1O (stereo unspecified)
0.0

Also COC1(CCO)CC=CCC1(CCO)OC (stereo unspecified) , if possible.
0.0
